Data origin, for the record: the supplement of paper PMC6555819

Answer each item with its documented PBM binding z-score.
# Tested on: LXRa homodimer (NR concentration 270 nM)
# measurement notes: PBM binding z-score (relative to random genomic background probes); higher = stronger binding; sequences stand for … in GC…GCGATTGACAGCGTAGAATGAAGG
// no unit string in output, number only

Provide only the value of recorded PBM binding z-score for CCGACTGGGGCAAGGTTAGCATAACGCACAGCCA
-0.322

Provide only the value of recorded PBM binding z-score for TCTGCTAGGTCAGTTGGTGAGCTAACGAGCTGCC
-0.796

Provide only the value of recorded PBM binding z-score for TCTATTAGTTGAAGGGCAACCAACGAGTCCGTTT
0.54

Provide only the value of recorded PBM binding z-score for AATACAGGGTCACTAGGCCTGAGTAGGTACGAAT
0.651

Provide only the value of recorded PBM binding z-score for ATCTCTAGGTAACCAAGTCCAGTGAATGCCGAAC
-0.00888

Provide only the value of recorded PBM binding z-score for ATCTCTAGGTAAGACTCAGTCCAGTGAAGAACGC
-0.00583

###

# Tested on: VDR:RXRa (NR concentration 270 nM, RXRa partner concentration 90 nM)
# measurement notes: PBM binding z-score (relative to random genomic background probes); higher = stronger binding; sequences stand for … in GC…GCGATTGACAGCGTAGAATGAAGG
readout type: PBM binding z-score
// no unit string in output, number only

Provide only the value of recorded PBM binding z-score for CCTTACGGGTCAAGGTTATAGTACGGGTGGTACG
3.62

Provide only the value of recorded PBM binding z-score for TATACAGGGTCAAAGGCAAGAGTACGAATGTCGA
4.61

Provide only the value of recorded PBM binding z-score for CGAACTAGGTCATAACAGGACAGTGAAGGATGAT
1.89

Provide only the value of recorded PBM binding z-score for TAGCCTAGGTCATGCGGGCCGGTATAGTGTCGGC
2.22

Provide only the value of recorded PBM binding z-score for ATCTCTAGGTAAGACTCAGTTCAGCGAAGAACGC
0.97

Provide only the value of recorded PBM binding z-score for TAGCCTAGGTCATTGGGCCGGTATAGTACGCATC
2.11

###

Answer each item with its documented PBM binding z-score.
# Test system: RARb homodimer (NR concentration 270 nM)
# measurement notes: PBM binding z-score (relative to random genomic background probes); higher = stronger binding; sequences stand for … in GC…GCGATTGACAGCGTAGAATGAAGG
// no unit string in output, number only

Provide only the value of recorded PBM binding z-score for AGTCAAAGTTCAGGACGAGGTAACGTCAAGCACG
3.13

Provide only the value of recorded PBM binding z-score for TCATATAGGTAAATGCTAGGTGAGAGTCCGATCT
0.0117

Provide only the value of recorded PBM binding z-score for TTACCAAGGTGAAAGTCGTTGATCCCTCTGTAGA
0.704

Provide only the value of recorded PBM binding z-score for GCTTACGGGTCAAAGGTTATATCATGAATAGAAT
3.32

Provide only the value of recorded PBM binding z-score for TCTTGTAGATAAACAGGAGGTTAAGAAAGATCGA
0.563

Provide only the value of recorded PBM binding z-score for TTACCAAGGTGAAAGGCCGTTGATGCACGCCTTG
1.1

Provide only the value of recorded PBM binding z-score for CAGCCTAGGTCAAGGCCAGTATAGGAGGAACGTT
3.01

Provide only the value of recorded PBM binding z-score for CCTACTAGGCCAAAGGTCATTGATTCCAATGCTC
4.84

Provide only the value of recorded PBM binding z-score for GCTGCTAGGTCAACTGATGGTCGGCTAAAGCTCG
3.67

Provide only the value of recorded PBM binding z-score for ATACAAAGGTGATCGTGAGGTCGTTGATACTAAC
2.28

Provide only the value of recorded PBM binding z-score for GCGACTGGGGCATCAGCAGGTGACCATAACTTAA
0.835

Provide only the value of recorded PBM binding z-score for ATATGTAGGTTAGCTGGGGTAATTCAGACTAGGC
0.856

Provide only the value of recorded PBM binding z-score for TAGCCTAGGTCATGGGCCAGAATACCACGCGAAC
2.86

Provide only the value of recorded PBM binding z-score for CCGAGTAGGTTATGGGGCATCCAGGCAACGGTGA
0.911

Provide only the value of recorded PBM binding z-score for AGAATGACGTTACCAAAGATCAGGGAAACGCTTG
-0.559

Provide only the value of recorded PBM binding z-score for GCGTCTGGGGCAAAGCAGGTTACCATAAGGTTGG
1.13

Provide only the value of recorded PBM binding z-score for CGTCCAAGTTCAAGGTAACGTAACAGAAAGCAGC
2.23

Provide only the value of recorded PBM binding z-score for CCTTACGGGTCACTGACAGGTTATCGCATTTGGA
3.3

Provide only the value of recorded PBM binding z-score for ATCTCTAGGTAAAGATAGTTCGGTGAATGCAAAT
-0.015

Provide only the value of recorded PBM binding z-score for TCTTGTAGATCACTAGAGGTTAAGAAAGTGCGCT
1.33

Provide only the value of recorded PBM binding z-score for TAGCCAAGGTCATTGGGCCAGTATAGTACGCATC
4.21

Provide only the value of recorded PBM binding z-score for TATACAGGGTCAAAGGCCAGAGGACGAATGTCGA
3.52

Provide only the value of recorded PBM binding z-score for CCTACTGGGCCACGAAAGGTCATCGATTCAGTGA
4.88

Provide only the value of recorded PBM binding z-score for CGTCCAAGGTCAATGGTAGGTCAGTGAAAGCATT
5.21

Provide only the value of recorded PBM binding z-score for TTACCATGGTGAGCTGAGGTCGTTGATCCAACTC
0.61

Provide only the value of recorded PBM binding z-score for GTACCAAGGTTAATAGGTCGTTGATGAGTAGGCG
2.14
